Numbers sourced from patent US20020177621A1.

# Test system: An-1 (Aspergillus niger)
# test-method-notes: Confirmation of synergistic action of two fragrances (vapor, paper disc)
# Assay type: cell-based
# test-context: 72 hours at 27° C., sample amount on disc: citral 2 μl, benzaldehyde 10 μl, dimethyl tetrahydrobenzaldehyde 20 μl, geraniol 10 μl, octyl aldehyde 20 μl, 9-decen-1-ol 0.5 μl, trans-2-undecenal 3 μl, phenylacetaldehyde 5 μl, A + B = both amounts on one disc
test-readout: IZ (diameter of growth inhibition zone)
Note: state the figure and append the unit.

Q: # query: IZ (diameter of growth inhibition zone) of entry CC(C)=CCCC(C)=CC=O
A: 0 mm

Q: Moving on to the next compound: CCCCCCCC=O
A: 10 mm

Q: Would you kindly repeat that for C=CCCCCCCCCO ?
A: 0 mm

Q: Also O=Cc1ccccc1 , if possible.
A: 15 mm

Q: Note, next up: CCCCCCCC/C=C/C=O [Trans-2-undecenal]
A: 30 mm

Q: Repeat for the following compound: O=CCc1ccccc1
A: 25 mm

Q: Item: CC(C)=CCC/C(C)=C/CO
A: 30 mm

Q: What do we get for CC1=CC(C)C(C=O)CC1 (centres unmarked) [Dimethyl tetrahydrobenzaldehyde, dimethyl tetrahydrobenzaldehyde] ?
A: 0 mm

---

Could you please report measured SI: Diameter of spore formation inhibition zone for the items listed next?
# System: Aspergillus niger IFO 9455 (An-1)
# test-method-notes: Fragrant vapor antifungal activity (impregnated paper disc on cover of inverted agar plate)
# Type: cell-based
# test-context: 20 μl fragrance on disc, 72 hours at 27° C.
Respond with the bare value in mm.

Q: What value of SI: Diameter of spore formation inhibition zone has been recorded for this entry: COc1ccc(C=O)cc1
A: 60

Q: And for C=CCc1ccc(O)c(OC)c1 ?
A: 60

Q: Another compound to check: CC(C)=CCCC(C)CCO (stereo not shown)
A: 55

Q: Then what about the compound CC(C=O)Cc1ccc2c(c1)OCO2 (stereo not shown) ?
A: 35

Q: Now this one: COC(/C=C/c1ccccc1)OC
A: 45

Q: Query CC=Cc1ccc(O)c(OC)c1 next
A: 50

Q: Another compound to check: CC(C)=CCC/C(C)=C/CO
A: 65

Q: Input C=C(C)[C@@H]1CC=C(CO)CC1
A: 40

---

# Test system: An-1 (Aspergillus niger)
# test-method-notes: Confirmation of synergistic action of two fragrances (vapor, paper disc)
# Type: cell-based
# test-context: 72 hours at 27° C., sample amounts as in Table 3 (citral 2 μl, benzaldehyde 10 μl, dimethyl tetrahydrobenzaldehyde 20 μl, geraniol 10 μl, octyl aldehyde 20 μl, 9-decen-1-ol 0.5 μl, trans-2-undecenal 3 μl, phenylacetaldehyde 5 μl; A + B = both)
test-readout: Growth (growth status outside the inhibition zone)

Please review the entries below; each comes with its answer.
compound | recorded-result
O=CCc1ccccc1 [Phenylacetaldehyde] | good
C=CCCCCCCCCO [Example 9-Decen-1-ol, 9-Decen-1-ol] | weak
CC(C)=CCCC(C)=CC=O [Citral] | weak
CCCCCCCC=O [Octyl aldehyde] | weak
O=Cc1ccccc1 [Benzaldehyde] | slight

Q: Form entry - test system: An-1 (Aspergillus niger); read-out: Growth (growth status outside the inhibition zone); compound: CC(C)=CCC/C(C)=C/CO [Geraniol]
A: weak

Q: What do you have for CCCCCCCC/C=C/C=O [Trans-2-undecenal] ?
A: slight

Q: Entry to check: CC1=CC(C)C(C=O)CC1 (centres unmarked) [Dimethyl tetrahydrobenzaldehyde, dimethyl tetrahydrobenzaldehyde]
A: weak
